Measured melting point by item

As a guide, the following entries are already answered.
CC(CCO)NNC(=O)c1cc(Oc2ccc(NC(=O)Nc3ccc(Cl)c(C(F)(F)F)c3)cc2)ccn1 (stereo not shown) [Compound 15b]	89 to 92 °C
O=C(Nc1ccc(Oc2ccnc(C(=O)NCCCO)c2)cc1)Nc1ccc(Cl)c(C(F)(F)F)c1 [Compound 10c]	103 to 105 °C
CC(CO)NNC(=O)c1cc(Oc2ccc(NC(=O)Nc3ccc(Cl)c(C(F)(F)F)c3)cc2)ccn1 (stereo not shown) [Compound 15a]	139 to 141 °C

Now take the following compound into account.
# melting point (compound: O=C(Nc1ccc(Oc2ccnc(C(=O)NCCO)c2)cc1)Nc1ccc(Cl)c(C(F)(F)F)c1 [Compound 10a] ) is 193 to 195 °C
